# Tested on: RDEB dermal fibroblasts EB71
# Experiment Notes: day of extracellular matrix detachment from plate (days); higher = delayed detachment (less fibrotic matrix)
# Test Conditions: compound concentration: 10 uM
Where a name gives a salt, the structure may show the parent alone. In all, about 1,100 compounds were measured (“day of extracellular matrix detachment from plate”: median about 16, lowest 2% from about 10 on). This is one part of a sample in which the lowest values are shown more often than they occur.
Measured Quantity: day of extracellular matrix detachment from plate

compound="O=C(O)COCCN1CCN(C(c2ccccc2)c2ccc(Cl)cc2)CC1 (stereo not given) [Cetirizine DiHCl]" reported_value=10.3
compound="C[N+](C)(C)CCO.[Cl-] [Choline Chloride]" reported_value=13
compound="COc1cc(Nc2ncc3c(n2)-c2ccc(Cl)cc2C(c2c(F)cccc2OC)=NC3)ccc1C(=O)O [Alisertib (MLN8237)]" reported_value=25
compound="Cc1nc(=O)c2cc(CN(C)c3ccc(C(=O)N[C@@H](CCC(=O)O)C(=O)O)s3)ccc2[nH]1 [Raltitrexed]" reported_value=25
compound="CCCS(=O)(=O)Nc1ccc(F)c(C(=O)c2c[nH]c3ncc(-c4ccc(Cl)cc4)cc23)c1F [Vemurafenib (PLX4032, RG7204)]" reported_value=14
compound="CO/N=C(\\C(=O)N[C@@H]1C(=O)N2C(C(=O)O)=C(CSc3nnnn3C)CS[C@H]12)c1csc(N)n1 [Cefmenoxime hydrochloride]" reported_value=18
compound="CN(C)/N=N/c1[nH]cnc1C(N)=O [Dacarbazine]" reported_value=11
compound="CCN1CCN(C(=O)N[C@@H](C(=O)N[C@@H]2C(=O)N3C(C(=O)O)=C(CSc4nnnn4C)CS[C@H]23)c2ccc(O)cc2)C(=O)C1=O [Cefoperazone]" reported_value=10.3
compound=Cc1c(F)cc(C(=O)NC2CC2)cc1-c1ccc(C(=O)NCC(C)(C)C)cn1 reported_value=16
compound="CC1(C)Cc2c(-c3ccccc3)c(-c3ccc(Cl)cc3)c(CC(=O)O)n2C1 [Licofelone]" reported_value=16
compound="OCCOCCN1CCN(C(c2ccccc2)c2ccc(Cl)cc2)CC1 (stereo not given) [Hydroxyzine 2HCl]" reported_value=18
compound="NCCCCC(NC(=O)C1CCCN1C(=O)C1CSSCC(N)C(=O)NC(Cc2ccc(O)cc2)C(=O)NC(Cc2ccccc2)C(=O)NC(CCC(N)=O)C(=O)NC(CC(N)=O)C(=O)N1)C(=O)NCC(N)=O (stereo not given) [Lypressin Acetate]" reported_value=23
compound="CO/N=C(\\C(=O)N[C@@H]1C(=O)N2C(C(=O)O)=C(COC(N)=O)CS[C@H]12)c1ccco1 [Cefuroxime sodium]" reported_value=17
compound="CSc1nc2cc(Cl)c(Oc3cccc(Cl)c3Cl)cc2[nH]1 [Triclabendazole]" reported_value=13
compound="CCN1CCN(C(=O)N[C@@H](C(=O)N[C@@H]2C(=O)N3[C@@H]2SC(C)(C)[C@@H]3C(=O)O)c2ccccc2)C(=O)C1=O [Piperacillin Sodium]" reported_value=13

---

The following molecules are shown together with reported day of extracellular matrix detachment from plate values.
# Test system: RDEB dermal fibroblasts EB71
# Experiment Notes: day of extracellular matrix detachment from plate (days); higher = delayed detachment (less fibrotic matrix)
# Test Conditions: compound concentration: 10 uM
Structures can show the parent of a compound that is named as a salt. Whole data set: some 1,100 compounds, median “day of extracellular matrix detachment from plate” near 16, cut for the lowest 2% near 10. The full list was thinned out, with the lowest values kept by preference.
Measured Quantity: day of extracellular matrix detachment from plate

molecule="CCN1CC(CCN2CCOCC2)C(c2ccccc2)(c2ccccc2)C1=O (stereo not given) [Doxapram HCl]" reported_value=18
molecule="CO[C@H]1C[C@@H]2CC[C@@H](C)[C@@](O)(O2)C(=O)C(=O)N2CCCC[C@H]2C(=O)O[C@H]([C@H](C)C[C@@H]2CC[C@@H](OCCO)[C@H](OC)C2)CC(=O)[C@H](C)/C=C(\\C)[C@@H](O)[C@@H](OC)C(=O)[C@H](C)C[C@H](C)/C=C/C=C/C=C/1C [Everolimus (RAD001)]" reported_value=25
molecule="N#C/C(=C1/SC[C@@H](c2ccc(Cl)cc2Cl)S1)n1ccnc1 [Luliconazole]" reported_value=13
molecule=CCOc1cc([C@@H](CS(C)(=O)=O)N2C(=O)c3cccc(NC(C)=O)c3C2=O)ccc1OC reported_value=12.7
molecule="OC(Cn1cncn1)(Cn1cncn1)c1ccc(F)cc1F [Fluconazole]" reported_value=12.7
